These data points were gathered from ChEMBL document CHEMBL1126714.

System: Nucleic Acid
assayDetails: Thermal denaturation in alternating poly(dA-dT)poly(dA-dT) homopolymer (AT)
Assay type: nucleic-acid assay
// Tm lookup, one value per entry
# number only, unit °C dropped from output

# count of solved cases: 5
N=C(N)c1ccc2nc(Cc3nc4ccc(C(=N)N)cc4[nH]3)[nH]c2c1; 11.5
C/C(=C(/C)c1nc2cc(C(=N)N)ccc2[nH]1)c1nc2cc(C(=N)N)ccc2[nH]1; 15.6
O=[N+]([O-])c1ccc2[nH]c(CCc3nc4cc([N+](=O)[O-])ccc4[nH]3)nc2c1; 0.2
CC(C)NC(=N)c1ccc2[nH]c(-c3ccc(-c4nc5cc(C(=N)NC(C)C)ccc5[nH]4)cc3)nc2c1; 45
N=C(N)c1ccc2[nH]c(CCCc3nc4cc(C(=N)N)ccc4[nH]3)nc2c1; 20.1

Now take the following compound into account.
// Tm lookup, compound = c1cc2[nH]c(CCc3nc4cc(C5=NCCN5)ccc4[nH]3)nc2cc1C1=NCCN1 , result: 34.6

---

Test system: Calf thymus DNA
assayDetails: Thermal denaturation in sonicated calf thymus DNA (CT DNA)
Format: nucleic-acid assay
runParameters: Bos taurus
// Tm lookup, one value per entry
# number only, unit °C dropped from output

# count of solved cases: 3
N=C(N)c1ccc2c(ccn2CCCCn2ccc3cc(C(=N)N)ccc32)c1; 12.1
Cc1cc(-c2nc3cc(C(=N)N)ccc3[nH]2)c(C)cc1-c1nc2cc(C(=N)N)ccc2[nH]1; 15.6
N=C(N)c1ccc2c(ccn2CCCn2ccc3cc(C(=N)N)ccc32)c1; 13.7

Now take the following compound into account.
// Tm lookup, compound = N=C(N)c1ccc2c(ccn2Cc2cccc(Cn3ccc4cc(C(=N)N)ccc43)c2)c1 , result: 8.1

---

// Ratio lookup, one value per entry
System: Nucleic Acid
assayDetails: Ratio between poly-dAdT and poly-dGdC binding
Format: nucleic-acid assay
Keep the answer to the number alone.

# count of solved cases: 2
CC(C)NC(=N)c1ccc2[nH]c(/C=C/c3nc4cc(C(=N)NC(C)C)ccc4[nH]3)nc2c1; 5
N=C(N)c1ccc2c(ccn2CCCCn2ccc3cc(C(=N)N)ccc32)c1; 2.2

// Ratio lookup, compound = Cc1cc(-c2nc3cc(C(=N)N)ccc3[nH]2)c(C)cc1-c1nc2cc(C(=N)N)ccc2[nH]1 , result: 7

---

System: Nucleic Acid
assayDetails: Thermal denaturation in alternating poly(dA-dT)poly(dA-dT) homopolymer (AT)
Format: nucleic-acid assay
// Tm lookup, one value per entry

// Tm lookup, molecule = CN1CCN(c2ccc3[nH]c(-c4ccc5[nH]c(-c6ccc(O)cc6)nc5c4)nc3c2)CC1 , result: 24.1 °C

// Tm lookup, molecule = N=C(N)c1ccc2[nH]c(-c3ccc(-c4nc5cc(C(=N)N)ccc5[nH]4)cc3)nc2c1 , result: 21.7 °C

// Tm lookup, molecule = c1cc2[nH]c(CCc3nc4cc(N5CCOCC5)ccc4[nH]3)nc2cc1N1CCOCC1 , result: 0.8 °C
